Biological target: CYP2D6 (Homo sapiens)
Construct: 0.1 mg/mL protein human liver microsomes (BD Gentest); tissue BD Gentest; host or cells: human liver microsomes
Sequence (P10635 whole entry): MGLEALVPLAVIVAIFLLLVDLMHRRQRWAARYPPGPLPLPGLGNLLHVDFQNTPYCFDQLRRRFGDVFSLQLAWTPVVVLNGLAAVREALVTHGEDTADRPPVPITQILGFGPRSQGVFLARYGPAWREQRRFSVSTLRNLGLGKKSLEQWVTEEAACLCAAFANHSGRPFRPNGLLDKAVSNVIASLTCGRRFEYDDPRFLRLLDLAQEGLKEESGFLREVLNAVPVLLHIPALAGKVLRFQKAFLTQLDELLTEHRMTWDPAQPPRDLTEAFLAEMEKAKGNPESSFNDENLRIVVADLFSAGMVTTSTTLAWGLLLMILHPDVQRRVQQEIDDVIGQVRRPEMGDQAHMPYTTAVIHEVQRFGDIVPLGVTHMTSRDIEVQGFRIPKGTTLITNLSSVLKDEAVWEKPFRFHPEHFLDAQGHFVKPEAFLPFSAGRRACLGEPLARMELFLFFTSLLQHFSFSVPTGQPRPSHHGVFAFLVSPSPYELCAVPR
Experiment: Cocktail assay for CYPs, dextromethorphan O-demethylation (CYP2D6), human liver microsomes
Type: biochemical
Conditions: 5 μM dextromethorphan, 0.1 mg/mL human liver microsomes, 10 min at 37° C.; read-out: CYP IC50 (nM) 2D6
Note to self: IC50 under 3000 nM means MET, ties and anything higher get NOT MET.

compound="O=S(=O)(c1ccc2c(c1)OCO2)N1CCCC1c1ccccc1-c1cncn1CCc1ccc(F)cc1 (stereo not shown) [Compound 26]" test_system="CYP2D6 (Homo sapiens)" classification=MET
compound="O=S(=O)(c1ccc(N2CCC(O)CC2)nc1)N1CCCC1c1cccc(-c2cncn2CCc2ccc(F)cc2)c1 (single isomer, unassigned) [Compound 57b]" test_system="CYP2D6 (Homo sapiens)" classification=MET
compound="CC(C)OC(=O)N1CCCC1c1cccc(-c2cncn2CCc2ccc(F)cc2)c1 (stereo not shown) [Compound 56]" test_system="CYP2D6 (Homo sapiens)" classification="NOT MET"
compound="O=S(=O)(c1cnc(N2CCN3C[C@H](O)C[C@H]3C2)s1)N1CCCC1c1ccccc1-c1cncn1CCc1ccc(F)cc1 (single isomer, unassigned) [Compound 22b]" test_system="CYP2D6 (Homo sapiens)" classification="NOT MET"
compound="O=C(c1cccnc1)N1CCCC1c1ccccc1-c1cncn1CCc1ccc(F)cc1 (single isomer, unassigned) [Compound 42b]" test_system="CYP2D6 (Homo sapiens)" classification="NOT MET"
compound="CS(=O)(=O)N1CCCC1c1cccc(-c2cncn2CCc2ccc(F)cc2)c1 (stereo not shown) [Compound 51]" test_system="CYP2D6 (Homo sapiens)" classification="NOT MET"
compound="O=S(=O)(c1cnc(Cl)c(Br)c1)N1CCCC1c1ccccc1-c1cncn1CCc1ccc(F)cc1 (stereo not shown) [Compound 25]" test_system="CYP2D6 (Homo sapiens)" classification=MET
compound="CN(C)c1ccc(S(=O)(=O)N2CCCC2c2ccccc2-c2cncn2CCc2ccc(F)cc2)cn1 (single isomer, unassigned) [Compound 28b]" test_system="CYP2D6 (Homo sapiens)" classification="NOT MET"
compound="O=C(c1cccnc1)N1CCCC1c1cccc(-c2cncn2CCc2ccc(F)cc2)c1 (single isomer, unassigned) [Compound 48a]" test_system="CYP2D6 (Homo sapiens)" classification="NOT MET"
compound="Fc1ccc(CCn2cncc2-c2ccccc2C2CCCN2)cc1 (stereo not shown) [Compound 40]" test_system="CYP2D6 (Homo sapiens)" classification="NOT MET"
compound="O=C(C1CCOCC1)N1CCCC1c1cccc(-c2cncn2CCc2ccc(F)cc2)c1 (single isomer, unassigned) [Compound 49b]" test_system="CYP2D6 (Homo sapiens)" classification="NOT MET"
compound="O=C(C1CC1)N1CCCC1c1ccccc1-c1cncn1CCc1ccc(F)cc1 (single isomer, unassigned) [Compound 44a]" test_system="CYP2D6 (Homo sapiens)" classification="NOT MET"
compound="CS(=O)(=O)N1CCCC1c1ccccc1-c1cncn1CCc1ccc(F)cc1 (single isomer, unassigned) [Compound 23b]" test_system="CYP2D6 (Homo sapiens)" classification="NOT MET"

---

Biological target: CYP2C9 (Homo sapiens, UniProt P11712)
Construct: 0.1 mg/mL protein human liver microsomes (BD Gentest); tissue BD Gentest; host or cells: human liver microsomes
Sequence (P11712 whole entry): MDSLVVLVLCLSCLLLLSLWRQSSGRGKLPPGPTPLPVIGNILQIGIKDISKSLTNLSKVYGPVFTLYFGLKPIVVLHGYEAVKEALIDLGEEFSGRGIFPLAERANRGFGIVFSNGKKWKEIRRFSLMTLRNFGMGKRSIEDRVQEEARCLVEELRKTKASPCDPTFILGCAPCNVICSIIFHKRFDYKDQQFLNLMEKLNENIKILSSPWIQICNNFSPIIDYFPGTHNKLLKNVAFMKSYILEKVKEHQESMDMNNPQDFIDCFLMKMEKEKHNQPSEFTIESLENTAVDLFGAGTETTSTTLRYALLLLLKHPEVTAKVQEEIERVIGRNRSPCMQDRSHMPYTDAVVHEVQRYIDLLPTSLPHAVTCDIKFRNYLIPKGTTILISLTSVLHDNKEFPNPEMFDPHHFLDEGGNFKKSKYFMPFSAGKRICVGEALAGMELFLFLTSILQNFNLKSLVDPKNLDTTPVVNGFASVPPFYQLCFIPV
Assay: Cocktail assay for CYPs, diclofenac 4′-hydroxylation (CYP2C9), human liver microsomes
Type: biochemical
Settings: 5 μM diclofenac, 0.1 mg/mL human liver microsomes, 10 min at 37° C.; read-out: CYP IC50 (nM) 2C9
IC50 overview
Readout label: IC50 (nM)

compound=CC(=O)Nc1ncc(S(=O)(=O)N2CCc3cc(-c4cncn4CCc4ccc(F)cc4)ccc3C2)s1 test_system="CYP2C9 (Homo sapiens, UniProt P11712)" uom=nM reading_qualifier== number=10
compound="COc1ccc(OC)c(S(=O)(=O)N2CCCC2c2ccccc2-c2cncn2CCc2ccc(F)cc2)c1 (stereo not shown)" test_system="CYP2C9 (Homo sapiens, UniProt P11712)" uom=nM reading_qualifier== number=1910
compound="O=C(C1CCOCC1)N1CCCC1c1ccccc1-c1cncn1CCc1ccc(F)cc1 (stereo not shown)" test_system="CYP2C9 (Homo sapiens, UniProt P11712)" uom=nM reading_qualifier=> number=10000
compound="O=C(NCc1ccc(S(=O)(=O)N2CCCC2c2cccc(-c3cncn3CCc3ccc(F)cc3)c2)s1)c1ccccc1 (single isomer, unassigned) [Compound 55b]" test_system="CYP2C9 (Homo sapiens, UniProt P11712)" uom=nM reading_qualifier== number=63.8
compound=O=S(=O)(NCc1ccccc1-c1cncn1CCc1ccc(F)cc1)c1cnc(N2CCN3C[C@H](O)C[C@H]3C2)s1 test_system="CYP2C9 (Homo sapiens, UniProt P11712)" uom=nM reading_qualifier== number=6270
compound="O=C(C1CCOCC1)N1CCCC1c1cccc(-c2cncn2CCc2ccc(F)cc2)c1 (single isomer, unassigned) [Compound 49b]" test_system="CYP2C9 (Homo sapiens, UniProt P11712)" uom=nM reading_qualifier=> number=10000
compound=C[C@H](c1ccc(F)cc1)n1cncc1-c1ccc2c(c1)CN(S(=O)(=O)c1cnc(N)s1)CC2 test_system="CYP2C9 (Homo sapiens, UniProt P11712)" uom=nM reading_qualifier== number=505
